Attribute measured: melting point

record_smiles=COc1cc(OC)c2c(=O)c(-c3ccc(OC)c(OCc4ccccc4)c3)coc2c1 measured_value="126 °C"
record_smiles=COc1cc(OC)c2c(=O)c(-c3ccc(OCc4ccccc4)c(OC)c3)coc2c1 measured_value="142.8 to 143.7 °C"

Would you mind giving melting point for every compound in the list below?
1. COc1cc(OC)c2c(=O)c(-c3ccc(OCc4ccc(C(F)(F)F)cc4)c(OC)c3)coc2c1
2. COc1cc(OC)c2c(=O)c(-c3ccc(OCC=C(C)C)c(OC)c3)coc2c1

128.4 to 130.2 °C
130.7 to 131.8 °C

What does the data say about its melting point? Entry: `COc1cc(OC)c2c(=O)c(-c3ccc(OC)c(OCc4ccc(C(F)(F)F)cc4)c3)coc2c1`
128.6 to 129.1 °C

====

biological target: SMO receptor (UniProt P56726); construct: fused on or other part: Possibly a C-terminal Myc3 tag, if the construct is Smo-Myc3 of Chen et al. 2002; assay: Displacement assay with Bodipy-cyclopamine in HEK293 cells transfected with SMO; details: BC 5 nM, 2 h at 37° C., read-out: IC50 of blocking Bodipy-cyclopamine (BC) binding to SMO
Attribute measured: IC50 (nM)
One number for each entry, in nM.

Suppose we examine the compound `COc1cc(OC)c2c(=O)c(-c3ccc(OCC=C(C)C)c(OCC=C(C)C)c3)coc2c1` ; what IC50 value has been reported?
1000

Data provenance is patent US10093642B2.
